Would you mind telling me the reported GI50 of each entry?
Test system: OVCAR-8
methodNotes: NCI tumour cell line growth inhibition, 48 h
The source made the active and inactive calls. No stated cut-off is given here; in the data, active = GI50 up to about 1.1 µM and inactive = higher.

Entry CN(C)C(=O)C(F)(F)C(c1ccccc1)C1C(=O)N(C)C(=O)N(C)C1=O (stereo unspecified) , GI50 reported as > 100 µM (inactive)

Record COc1ccc(/C=C2\C(=O)NC(=O)c3ccccc32)cc1OC . Reported GI50: 10.1 µM (inactive)

Record COc1cc2c(cc1OC)C1Cc3ccccc3CCN1CC2 (stereo unspecified) . Reported GI50: > 100 µM (inactive)

The reported value for CC1(C)COC(C23C4C5C2C2C3C4C52I)=N1 (stereo unspecified) in terms of GI50 is > 100 µM (inactive)

Per the records, this compound ( Cc1ccc(S(=O)(=O)N/N=C2/C3CC4CCC2C4C3)cc1 (stereo unspecified) ) has GI50 equal to > 100 µM (inactive)

Kindly note the recorded GI50 for Cc1c(/C=N/NC(=S)Nc2ccc(Cl)cc2)c(=O)n(-c2ccccc2)n1C , which is 24.9 µM (inactive)

GI50 for N=C1SCCS1 is > 100 µM (inactive)

Value of measured GI50 for the entry CN(CCCNC(=O)c1nn(-c2ccc(Cl)cc2Cl)c2c1Cc1ccccc1-2)CCCNC(=O)c1nn(-c2ccc(Cl)cc2Cl)c2c1Cc1ccccc1-2 : 1.81 µM (inactive)

Entry COc1cc(C)cc2c1c(=O)c1ccccc1n2C — recorded GI50 = 40.1 µM (inactive)

Lab book: GI50 of CC(=O)O[C@@H]1[C@H](C(C)C)[C@@H](OC(C)=O)C/C(C)=C/CC[C@]2(C)O[C@@H]12 noted as > 100 µM (inactive)

Quick note, GI50 for CCOC(=O)c1csc(NC(=O)CN2CCN(C)CC2)n1 landed at > 100 µM (inactive)

###

Tested on: NCI-H522
methodNotes: NCI tumour cell line growth inhibition, 48 h
The source made the active and inactive calls. Cut-off read from the data, not from the text of the source: active = GI50 up to about 1.1 µM and inactive = higher.
valueKind: GI50

Short answer on NCI-H522 for CCc1c[n+]([O-])c(C)cc1[N+](=O)[O-] , GI50: 55.3 µM (inactive)

Per the reported NCI-H522 data, O=C1C2C(C(=O)N1c1ccccc1)C1(Br)c3ccccc3C2(Br)C2C(=O)N(c3ccccc3)C(=O)C21 (stereo not given) has GI50 of > 10 µM (inactive)

With NCI-H522 as the test system, O=S(=O)(c1ccccc1)C1CN2OC1(S(=O)(=O)c1ccccc1)CC21CCCCC1 (stereo not given) showed GI50 of 51.5 µM (inactive)

Assay NCI-H522, sample CCOC(=O)C1C(=O)c2cccc(OC)c2C2COC(=O)N12 (stereo not given) , GI50 read: > 100 µM (inactive)

Query Cc1c(/C=N/NC(=S)Nc2ccc(Cl)cc2)c(=O)n(-c2ccccc2)n1C on NCI-H522; GI50 returned: 7.08 µM (inactive)

###

Tested on: K562
methodNotes: NCI tumour cell line growth inhibition, 48 h
Active and inactive are the calls of the source. Rule as the data show it: active = GI50 up to about 1.1 µM and inactive = higher.
Please reply with one of these outcomes: active, inactive

For SC1=NNC2(C(S)=N1)c1ccccc1-c1ccccc12 , which call appears in the assay record?
inactive

Any idea what this test logged for CC(C)OP(=O)(OC(C)C)c1c(N)n[nH]c1Nc1ccccc1 ?
inactive

Kindly provide the recorded test outcome for the following compound: O=C(Cc1ccccc1)NNc1nc(NNC(=O)c2ccncc2)nc(Nc2ccc([N+](=O)[O-])cc2)n1
inactive

Hi, do you know how CCOC(=O)/C1=C(\C)N(Cc2ccccc2)C(=O)c2ccccc2C(=O)c2c(OC(C)=O)ccc(OC(C)=O)c21 came out in this test?
inactive

// outcome(item) with item = CCCCCCCCCCCCCCCCCCOCC(CO[PH](=O)O)OCCCCCCCCCCCCCCCCCC (centres undefined)
inactive

What outcome does the record of this test show for CCN(CC)C(=S)SC(C(=O)Nc1nnc(-c2ccccc2)o1)c1ccccc1 (centres undefined) ?
inactive

Field: outcome | Entry: Cn1cnnc1Sc1c([N+](=O)[O-])ncn1C
inactive

What did this assay record as the result for CCCCCCCCCCCCCCNC(=O)CCC(NC(=O)c1ccc(N(C)Cc2cnc3nc(N)nc(N)c3n2)cc1)C(=O)NCCCCCCCCCCCCCC (centres undefined) ?
active

Which outcome was assigned to CN(CCCNC(=O)c1nn(-c2ccc(Cl)cc2Cl)c2c1Cc1ccccc1-2)CCCNC(=O)c1nn(-c2ccc(Cl)cc2Cl)c2c1Cc1ccccc1-2 in this test?
active

For O=[N+]([O-])c1ccc(C2CC(c3ccccc3Cl)=Nc3ccccc3S2)cc1 (centres undefined) , which call appears in the assay record?
inactive

Please state the recorded outcome for this compound: COc1cc(/C=N/n2c(Cc3ccc(Cl)cc3)n[nH]c2=O)cc(OC)c1OC
inactive

# lookup: test call for CC(C)(C)OC(=O)C1/C(=C/CO)CN1C(=O)OC(C)(C)C (centres undefined)
inactive

Write down the call the test reported for this compound. Item: CC1CCC(=O)C(C(=O)CC2CC(=O)NC(=O)C2)C1 (centres undefined)
inactive

Name the outcome recorded for COc1ccccc1/C=C(\NC(=O)c1ccccc1)c1nc2ccc(Cl)cc2[nH]1 in the assay.
inactive

State the result this test recorded for Cc1nc2ccccc2n1Cc1ccc(NC(=S)NC2CCCCC2)cc1 .
inactive

Which outcome was entered for the compound O=C1[C@H]2ON(c3ccccc3)C(c3ccc([N+](=O)[O-])cc3)[C@H]2C(=O)N1c1ccc(Cc2ccc(N3C(=O)[C@@H]4ON(c5ccccc5)C(c5ccc([N+](=O)[O-])cc5)[C@@H]4C3=O)cc2)cc1 (some centres undefined) in this test?
inactive

// outcome(item) with item = COCC(=O)OC1CCn2c1nc1c2C(=O)C(C)=C(NC(C)=O)C1=N (centres undefined)
inactive

Assay outcome for C[N+](C)(C)CC(=O)N/N=C(/Cc1nc2ccc(Cl)cc2nc1O)C1=NS(=O)(=O)c2cc(S(N)(=O)=O)c(Cl)cc2N1 : what was it?
inactive

Per the assay record, what outcome was assigned to C=CCN(C(=O)CNC(=O)C(F)(F)F)c1cc(OCc2ccccc2)c2c(c1)c(C)cn2S(=O)(=O)c1ccccc1 ?
inactive
